target: Prostaglandin D2 receptor 2 (Homo sapiens); test: Antagonist activity at human recombinant CRTh2 expressed in CHO-K1 cells by cAMP TR FRET assay; type: functional, cell-based
Sequence (Q9Y5Y4 whole entry): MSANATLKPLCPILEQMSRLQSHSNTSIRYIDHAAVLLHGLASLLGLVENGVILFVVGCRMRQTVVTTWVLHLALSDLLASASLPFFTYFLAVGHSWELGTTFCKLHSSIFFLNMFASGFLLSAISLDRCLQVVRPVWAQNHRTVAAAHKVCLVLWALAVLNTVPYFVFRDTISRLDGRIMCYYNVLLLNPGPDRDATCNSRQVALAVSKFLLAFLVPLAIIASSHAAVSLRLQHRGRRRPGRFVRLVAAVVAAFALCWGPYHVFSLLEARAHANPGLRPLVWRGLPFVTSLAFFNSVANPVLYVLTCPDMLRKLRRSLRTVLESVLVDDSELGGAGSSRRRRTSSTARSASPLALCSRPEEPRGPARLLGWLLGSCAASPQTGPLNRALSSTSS
metric: IC50 (nM)

{"smiles repr": "Cc1c(-c2ccc(=O)n(Cc3c(F)cccc3F)c2)c2cc(F)ccc2n1CC(=O)O", "readout units": "nM", "IC50": 6}

1: Cc1c(-c2cn(Cc3ccccc3)c(=O)c3ccccc23)c2cc(F)ccc2n1CC(=O)O
2: Cc1c(-c2ccc(=O)n(Cc3c(F)cccc3F)c2)c2ccccc2n1CC(=O)O
3: Cc1c(Cc2ccc(=O)n(CC(F)(F)F)c2)c2cc(F)ccc2n1CC(=O)O
4: COc1ccc2c(c1)c(-c1ccc(=O)n(CC(F)(F)F)c1)c(C)n2CC(=O)O
Arrange by IC50, high to low. # list labels per requested ordering
4, 3, 2, 1
(4: 2000 nM, 3: 52 nM, 2: 21 nM, 1: 14 nM)

P: Cc1c(Cc2ccc(=O)n(CCCC(F)(F)F)n2)c2cc(F)ccc2n1CC(=O)O
Q: Cc1c(-c2cn(CC(F)(F)F)c(=O)c3c2CCCC3)c2cc(F)ccc2n1CC(=O)O
Which item exceeds the other in IC50, P or Q ? // respond with label for picked entry
Q
(Q: 1000 nM, P: 11 nM)
